assay: 4-h oral plasma pharmacokinetics and tissue distribution, male wild-type and Oatp1a/1b−/− mice; format: in vivo; settings: male, FVB, mouse, liver, po, 10 mg/kg, Table S2, male wild-type mice, 10 mg/kg oral, read-out: Cliver
Quantity: concentration at 4 h (ng/g)
Just the number please, in ng/g, no unit attached.

Look at this compound and give its reported concentration at 4 h. "C[C@H]1CNC(=O)c2cnn3ccc(nc23)N[C@H](C)c2cc(F)ccc2O1"
6630

====

Experiment: 8-h oral plasma pharmacokinetics and tissue distribution, female wild-type, Cyp3a−/− and Cyp3aXAV mice
Assay type: in vivo
Conditions: female, FVB, mouse, brain, po, 10 mg/kg, female Cyp3aXAV mice, 10 mg/kg oral, 8 h; read-out: Cbrain
From the text: Mice with similar average ages (and body weights) were randomly allocated in experimental groups as far as possible. […] Given the objective main readout (repotrectinib plasma and tissue concentrations as measured by LC-MS/MS), no blinding method was applied. […] A sensitive and specific liquid chromatography-tandem mass spectrometry method using protein precipitation pre-treatment was adopted to quantify the concentration of repotrectinib in DMEM medium, plasma samples and tissue homogenates. […]
Quantity: concentration at 8 h (ng/g)
Just the number please, in ng/g, no unit attached.

Look at this compound and give its reported concentration at 8 h. C[C@H]1CNC(=O)c2cnn3ccc(nc23)N[C@H](C)c2cc(F)ccc2O1 [repotrectinib]
80.2
